- Test system: CCRF-CEM
- TEST NAME: Cytotoxicity against human CEM cells by CellTiter 96 non-radioactive cell proliferation colorimetric assay
- Assay type: cell-based
- ASSAY SETUP: ccrf-cem
Could you please mark fulfilled for values of CC50 below 30 µM and not fulfilled for values at or above it?

Consider the following illustrative entries.
{"SMI": "O=C(Nc1ccc(F)c(F)c1)c1cc(S(=O)(=O)NS(=O)(=O)c2ccc(F)c(F)c2)ccc1F", "CAT": "not fulfilled"}
{"SMI": "O=C(Nc1ccc(F)c(F)c1)c1cc(S(=O)(=O)N2CCC(F)(F)CC2)ccc1F", "CAT": "fulfilled"}
{"SMI": "CC(C)OC(=O)[C@H](C)NS(=O)(=O)c1ccc(F)c(C(=O)Nc2ccc(F)c(F)c2)c1", "CAT": "not fulfilled"}
{"SMI": "CN(C1CCCC1)S(=O)(=O)c1ccc(F)c(C(=O)Nc2ccc(F)c(F)c2)c1", "CAT": "fulfilled"}
{"SMI": "O=C1c2cc(S(=O)(=O)NC3CCCC3)ccc2CCN1c1ccc(F)c(F)c1", "CAT": "not fulfilled"}
{"SMI": "CC(C)(NC(=O)c1cccc(S(=O)(=O)NC2CCCC2)c1)c1ccc(F)c(F)c1", "CAT": "not fulfilled"}
{"SMI": "CN(C1CCCC1)S(=O)(=O)c1ccc2c(c1)C(=O)N(c1ccc(F)c(F)c1)CCC2", "CAT": "not fulfilled"}

Lab note: next compound to report on.
Here's an entry: COC(=O)[C@H](Cc1ccccc1)NS(=O)(=O)c1ccc(F)c(C(=O)Nc2ccc(F)c(F)c2)c1 . Is its CC50 below 30 µM?
not fulfilled

====

- Test system: PBMC
- TEST NAME: Cytotoxicity against human PBMC by CellTiter 96 non-radioactive cell proliferation colorimetric assay
- Format: cell-based
MEASURE: CC50

{"COMPOUND": "O=C(Nc1ccc(F)c(F)c1)c1cc(NS(=O)(=O)C2CCCC2)ccc1F", "EXPERIMENTAL TARGET": "PBMC", "CC50": "> 100 µM"}
{"COMPOUND": "O=C(Nc1ccc(F)c(F)c1)c1cc(NS(=O)(=O)C2CC2)ccc1F", "EXPERIMENTAL TARGET": "PBMC", "CC50": "39.2 µM"}
{"COMPOUND": "O=C(Nc1ccc(F)c(F)c1)c1cc(S(=O)(=O)NC2CC2)ccc1F", "EXPERIMENTAL TARGET": "PBMC", "CC50": "30.1 µM"}
{"COMPOUND": "O=C(Nc1ccc(F)c(F)c1)c1cc(S(=O)(=O)N2CCC(F)(F)CC2)ccc1F", "EXPERIMENTAL TARGET": "PBMC", "CC50": "> 100 µM"}

Sample CC(NS(=O)(=O)c1ccc(F)c(C(=O)Nc2ccc(F)c(F)c2)c1)c1ccccc1 (centres undefined) — what was its CC50?
> 100 µM

Which CC50 value is on record for O=C(Nc1ccc(F)c(F)c1)c1cc(S(=O)(=O)NC2CCCC2)ccc1F ?
15.6 µM

Would you kindly share the measured CC50 for O=C(NC1(c2ccc(F)c(F)c2)CC1)c1cc(S(=O)(=O)NC2CCCC2)ccc1F ?
> 100 µM

# lookup: CC50 of O=C1c2cc(S(=O)(=O)NC3CCCC3)ccc2CCN1c1ccc(F)c(F)c1
> 100 µM

Data request, read-out CC50, for CN(C)S(=O)(=O)NS(=O)(=O)c1ccc(F)c(C(=O)Nc2ccc(F)c(F)c2)c1
> 100 µM

Look up CC50 for this compound: CS(=O)(=O)NS(=O)(=O)c1ccc(F)c(C(=O)Nc2ccc(F)c(F)c2)c1
> 100 µM

// lookup CC50 for O=C(Nc1ccc(F)c(F)c1)c1cc(S(=O)(=O)N2CC(F)(F)C(F)(F)C2)ccc1F
> 100 µM

====

In this section, each of the molecules is paired with its reported CC50.
- System: PBMC
- TEST NAME: Cytotoxicity against human PBMC by CellTiter 96 non-radioactive cell proliferation colorimetric assay
- Type: cell-based

The examples below pair each entry with its known result.
{"MOLECULE": "O=C(Nc1ccc(F)c(F)c1)c1cc(S(=O)(=O)N2CCC3CCCCC32)ccc1F (stereo not drawn)", "CC50": "> 100 µM"}
{"MOLECULE": "O=C(Nc1ccc(F)c(F)c1)c1cc(S(=O)(=O)NS(=O)(=O)C2CC2)ccc1F", "CC50": "> 100 µM"}

Please look at the following molecule next.
Suppose we examine the molecule CC(C)OC(=O)[C@H](C)NS(=O)(=O)c1ccc(F)c(C(=O)Nc2ccc(F)c(F)c2)c1 ; what CC50 value has been reported?
> 100 µM
